I'd be grateful if you could share measured cell viability for these entries.
# Test system: SEM cells
# assay_details: cell viability relative to DMSO control; higher = less cytotoxic
# condition_label: HPLM + 10% dialyzed FBS; 48 h; 5.12 µM
Enter your answer as a number in %; do not include the unit.

stdin: Which cell viability value is on record for `OC1=CC2=C(C(=C1)O)C(=O)\C=C(/O2)C3=CC=CC=C3` ?
stdout: 85

stdin: Now give it for `CC(C)=CC[C@@H](O)C/1=C/C(=O)C2=C(O)C=CC(=C2C1=O)O` too.
stdout: 98.7

stdin: Now give it for `COc1cc2c(cc1OC)CC(=O)N(CCCN(C)C[C@H]1Cc3cc(OC)c(OC)cc31)CC2.Cl` too.
stdout: 112

stdin: Now give it for `C=CC[C@@H]1/C=C(\C)C[C@H](C)C[C@H](OC)[C@H]2O[C@@](O)(C(=O)C(=O)N3CCCC[C@H]3C(=O)O[C@H](/C(C)=C/[C@@H]3CC[C@@H](O)[C@H](OC)C3)[C@H](C)[C@@H](O)CC1=O)[C@H](C)C[C@@H]2OC` too.
stdout: 60.9

stdin: Now give it for `C[S+]([O-])(=O)C1=CC=C(C=C1)C/2=C(/C(=O)OC2)C3=CC=CC=C3` too.
stdout: 115
